Cited source: patent US20060257480A1

protocol: Example 8 Part I: multiple rising oral dose pharmacokinetics of NC-758
Assay type: in vivo
condition_details: male, human, plasma, 100 mg, 100 mg BID, Day 1, young (18-45 years) male, fasted, median
reported_property: Tmax

NCCCS(=O)(=O)O [3-APS, 3-amino-1-propanesulfonic acid]; 6 h

###

protocol: Example 7 Part I: single rising oral dose pharmacokinetics of NC-758 (Table 3 tablet), plasma 3-APS by LC-MS/MS
Format: in vivo, human
condition_details: male, human, plasma, po, 200 mg, 200 mg single oral, young (18-45 years) male, fasted; mean; read-out: AUC0-Tlast
reported_property: AUC(0-t)

NCCCS(=O)(=O)O [3-APS, 3-amino-1-propanesulfonic acid]; 2900 ng·h/mL
